- Assay system: PI 4-kinase beta (Homo sapiens)
- Sequence (Q9UBF8 whole entry): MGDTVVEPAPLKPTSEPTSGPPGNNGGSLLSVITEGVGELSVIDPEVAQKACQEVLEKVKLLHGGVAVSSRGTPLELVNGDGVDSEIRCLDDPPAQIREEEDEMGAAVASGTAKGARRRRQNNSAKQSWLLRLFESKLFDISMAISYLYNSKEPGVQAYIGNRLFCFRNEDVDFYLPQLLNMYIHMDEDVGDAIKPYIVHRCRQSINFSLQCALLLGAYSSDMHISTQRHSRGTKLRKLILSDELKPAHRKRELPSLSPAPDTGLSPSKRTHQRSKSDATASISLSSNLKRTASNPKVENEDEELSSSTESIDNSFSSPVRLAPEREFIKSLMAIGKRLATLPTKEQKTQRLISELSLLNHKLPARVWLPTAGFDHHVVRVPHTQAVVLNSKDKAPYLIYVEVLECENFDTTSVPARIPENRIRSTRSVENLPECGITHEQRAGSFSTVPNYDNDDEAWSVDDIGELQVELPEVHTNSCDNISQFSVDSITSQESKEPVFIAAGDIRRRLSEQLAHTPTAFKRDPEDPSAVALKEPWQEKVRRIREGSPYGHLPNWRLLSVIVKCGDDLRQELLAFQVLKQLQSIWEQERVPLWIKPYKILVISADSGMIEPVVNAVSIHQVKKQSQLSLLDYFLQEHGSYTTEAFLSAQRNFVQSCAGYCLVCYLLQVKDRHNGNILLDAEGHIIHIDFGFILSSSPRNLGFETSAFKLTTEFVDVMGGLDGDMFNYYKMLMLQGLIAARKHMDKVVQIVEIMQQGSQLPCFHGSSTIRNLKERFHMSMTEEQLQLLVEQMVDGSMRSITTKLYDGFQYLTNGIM
- Assay method text: Kinase Glo Luminescent Kinase Assay (Kglo), assay D
- Format: biochemical
- Recorded conditions: read-out: Assay D PI4Kβ IC50
pIC50: −log10 of the molar value.
The entries below are paired with their reported pIC50.

> print(dat)
                                   molecule  result
1  Cc1ccc(S(=O)(=O)NCC2CN(C)CCO2)cc1-c1cnc(N)c(-c2cn(C)nc2C)n1 (stereo not shown)  < 5.00
2  Cc1cc(-c2nc(-c3cc(S(=O)(=O)NC[C@@](C)(O)C(F)(F)F)ccc3C)cnc2N)ccn1  < 5.04
3  Cc1ccc(S(=O)(=O)NCC(C)(C)CO)cc1-c1cnc(N)c(-n2cncn2)n1  < 5.04
4  Cc1cc(-c2nc(-c3cc(S(=O)(=O)NCC(C)(C)N4CCOCC4)ccc3C)cnc2N)ccn1  < 5.04
5  Cc1ccc(S(=O)(=O)N[C@H]2CC[C@](C)(O)CC2)cc1-c1cnc(N)c(-n2cncn2)n1 [Example 69a]  < 5.00

Query :: Which pIC50 value belongs to `Cc1ccc(S(=O)(=O)N2CCC(F)(F)CC2)cc1-c1cnc(N)c(-n2cncn2)n1` ?
Result :: < 5.00

Query :: Also, `Cc1cc(-c2nc(-c3cc(S(=O)(=O)NC[C@H]4CCNC4)ccc3C)cnc2N)ccn1` please.
Result :: < 5.04
